system: Candida albicans; settings: 20 µM
Description: Antifungal activity against Candida albicans ATCC 90028 (CO-ADD:FG_001); MIC in YNB media using NBS plates, by OD630
Potency and affinity values are given separately.
Yes means recorded Inhibition is 4% or above; No means it is below 4%.

Quick check, Inhibition >= 4%? Cc1[nH]c(=O)c(C#N)cc1-c1ccncc1 [MILRINONE]
No

Quick check, Inhibition >= 4%? COC(=O)[C@H](c1ccccc1Cl)N1CCc2sccc2C1 [CLOPIDOGREL]
No

Quick check, Inhibition >= 4%? CCOC(=O)[C@H](CCc1ccccc1)N[C@@H](C)C(=O)N1[C@H](C(=O)O)C[C@@H]2CCC[C@@H]21
No

Quick check, Inhibition >= 4%? COc1cc(C[C@@H](CO)[C@H](CO)Cc2ccc(O)c(OC)c2)ccc1O [(+)-SECOISOLARICIRESINOL]
Yes

Quick check, Inhibition >= 4%? COCCOC(=O)C1=C(C)NC(C)=C(C(=O)OC(C)C)C1c1cccc([N+](=O)[O-])c1 (stereo unspecified) [NIMODIPINE]
Yes
